# System: RSV (Long)
# PROTOCOL_NOTES: RSV cytopathic effect (CPE)-based viral replication assay
# Type: cell-based, respiratory syncytial virus (RSV)
# TEST_SETTINGS: human respiratory syncytial virus, HEp-2, 72 h, HEp-2 cells infected with RSV Long at MOI 0.015; 3 days at 37° C.; cell viability by CellTiter-Glo luminescence; read-out: EC50 (nm)
VALUE_TYPE: EC50 (nM)

Worked cases, answers included:
COMPOUND: N#Cc1ccc(-c2c(CN3C(=O)C4(CN(C(=O)OCCO)C4)c4ccccc43)ncc3ccccc23)cn1 [Example 64]
TESTED_TARGET: RSV (Long)
MEASUREMENT_UNITS: nM
EC50: 1.6
--
COMPOUND: O=C(C1CCNCC1)N1CCC2(CC1)C(=O)N(Cc1ncc3ccccc3c1-c1cccnc1)c1cnccc12 [Example 140]
TESTED_TARGET: RSV (Long)
MEASUREMENT_UNITS: nM
EC50: 3.4
--
COMPOUND: NC1(C(=O)N2CC3(C2)C(=O)N(Cc2ncc4ccccc4c2-c2ccc(S(N)(=O)=O)cc2)c2ccccc23)CC1 [Example 125]
TESTED_TARGET: RSV (Long)
MEASUREMENT_UNITS: nM
EC50: 6

I = CS(=O)(=O)N1CCC2(CC1)C(=O)N(Cc1ncc3ccccc3c1-c1cnco1)c1cnccc12 [Example 159b]
II = NCC(=O)N1CC2(C1)C(=O)N(Cc1ncc3ccccc3c1-c1cccnc1)c1ccccc12 [Example 152]
III = O=C(OC1CC1)N1CCC(n2c(=O)n(Cc3ncc4ccccc4c3CCCCO)c3cnccc32)CC1 [Example 35]
IV = CC(C)(C)NC(=O)N1CC2(C1)C(=O)N(Cc1ncc3ccccc3c1CCCCO)c1ccccc12 [Example 56]
Ask: Please give the order of these compounds when sorted by EC50, largest value leading. Lab note: final answer is the ordered label list.
Reply: II, I, III, IV
(II: 12 nM, I: 7.8 nM, III: 2.4 nM, IV: 1.3 nM)
